- test-name: Lipophilicity by RP-TLC
- Format: physicochemical
- experimental-conditions: Tris buffer pH 7.4/acetone, read-out: logPTLC
attribute-measured: chromatographic logP

> print(dat)
                               query.smiles  data.value
1  C[n+]1cc2c(c3ccccc31)Nc1cc(OCc3ccccc3)ccc1S2        3.48
2   C#CCOc1ccc2c(c1)Sc1c[n+](C)c3ccccc3c1N2        2.11
3  CCCOc1ccc2c(c1)Nc1c(c[n+](C)c3ccccc13)S2        1.99

###

- Tested on: normal human dermal fibroblasts (NHDF)
- test-name: In vitro cell viability, WST-1 assay
- Assay type: cell-based
- experimental-conditions: 72 h
// reported IC50 for each item listed
attribute-measured: IC50 (µM)

> print(dat)
                               query.smiles  quantity.unit  relation.symbol  data.value
1   C=CCOc1ccc2c(c1)Sc1c[n+](C)c3ccccc3c1N2             µM                >         100
2  CCCOc1ccc2c(c1)Nc1c(c[n+](C)c3ccccc13)S2             µM                =        65.5
3  C[n+]1cc2c(c3ccccc31)Nc1ccc(OCc3ccccc3)cc1S2             µM                =        37.7
4    CCCOc1ccc2c(c1)Sc1c[n+](C)c3ccccc3c1N2             µM                >         100
5  C=CCOc1ccc2c(c1)Nc1c(c[n+](C)c3ccccc13)S2             µM                >         100

###

// reported MBC for each item listed
- System: Enterococcus faecalis ATCC 29212
- test-name: MBC, agar aliquot subculture method
- Format: cell-based
- experimental-conditions: ATCC29212; EF = Enterococcus faecalis
attribute-measured: MBC (µM)

> print(dat)
                               query.smiles  quantity.unit  data.value
1    CCCOc1ccc2c(c1)Sc1c[n+](C)c3ccccc3c1N2             µM        89.1
2  C[n+]1cc2c(c3ccccc31)Nc1c(OCc3ccccc3)cccc1S2             µM         157
3    CCCOc1cccc2c1Nc1c(c[n+](C)c3ccccc13)S2             µM         178
4   C=CCOc1cccc2c1Nc1c(c[n+](C)c3ccccc13)S2             µM         359

###

- Test system: methicillin-resistant S. aureus SA 3202 (MRSA1)
- test-name: MIC, microtitration broth method
- Type: cell-based
- experimental-conditions: Staphylococcus aureus; MRSA1 = SA 3202; 24 h, 37 °C
attribute-measured: MIC (µM)

> print(dat)
                                   compound                               system.name  attribute.measured  data.value
1    CCCOc1ccc2c(c1)Sc1c[n+](C)c3ccccc3c1N2  methicillin-resistant S. aureus SA 3202 (MRSA1)                 MIC        22.3
2  C[n+]1cc2c(c3ccccc31)Nc1cc(OCc3ccccc3)ccc1S2  methicillin-resistant S. aureus SA 3202 (MRSA1)                 MIC        19.7
3    CCCOc1cccc2c1Nc1c(c[n+](C)c3ccccc13)S2  methicillin-resistant S. aureus SA 3202 (MRSA1)                 MIC         178
4   C#CCOc1cccc2c1Nc1c(c[n+](C)c3ccccc13)S2  methicillin-resistant S. aureus SA 3202 (MRSA1)                 MIC         180
5  Cc1onc(-c2ccccc2)c1C(=O)N[C@@H]1C(=O)N2[C@@H]1SC(C)(C)[C@@H]2C(=O)O [OXA, oxacillin, reference compound]  methicillin-resistant S. aureus SA 3202 (MRSA1)                 MIC        79.8
